Target: biot-RSV-F wt (respiratory syncytial virus (RSV))
Assay: BLI (Octet), biotinylated F on SA sensors, mAb 5 µg/ml

BINDER: RSD5-FR-GL-rIgG1 (antibody, V domains shown, Germline-reverted version of RSD5 (framework regions), recombinant IgG1; also called RSD5-FR-GL-rlgG1) VH: QVQLVESGGGVVQPGRSLRLSCAASGFAFNNFAMHWVRQAPGKGLEWVAVVSYDGTSPYYADSVKGRFTISRDNSKNTLYLQMNSLRAEDTAVYYCARGLGSGSYSWIGYFYAMDVWGQGTTVTVSS VL: QSALTQPASVSGSPGQSITISCTGTSSDVGGYVYVSWYQQHPGKAPKLMIYDVSNRPSGVSNRFSGSKSGNTASLTISGLQAEDEADYYCISYTDRNTVVFGGGTKLTVL
READOUT_UNITS: nM
Kd: 1.46
